assay: qHTS assay for small molecule agonists of the p53 signaling pathway - cell viability (AID 651633); settings: p53RE-bla HCT-116 viability, ATP luminescence, 16 h; series mostly up to 83.3 µM; further: nearly all actives have a fitted effect of over 30% in size
Results filed as inconclusive are left out. Active and inactive are the calls of the source. The call rests on the fitted dose curve.
Outcome codes: true (1) (active), false (0) (inactive)

>>> classification("CC(C)c1ccc(O)c(C(C)C)c1")
"false (0)"
>>> classification("CCC(C)(C)c1cc(O)c(C(C)(C)CC)cc1O")
"true (1)"
>>> classification("COc1cc(C(=O)NS(=O)(=O)c2ccccc2C)ccc1Cc1cn(C)c2ccc(NC(=O)OC3CCCC3)cc12")
"true (1)"
>>> classification("CCCCCCCCCCCCCOP(=O)(O)O")
"true (1)"
>>> classification("CC(COC(=O)c1ccccc1)OC(=O)c1ccccc1 (centres undefined)")
"false (0)"
>>> classification("C=CC(=C)CCC=C(C)C")
"false (0)"
>>> classification("Nc1ccc2cc3ccc(N)cc3nc2c1")
"false (0)"
>>> classification("COCC(=O)O[C@]1(CCN(C)CCCc2nc3ccccc3[nH]2)CCc2cc(F)ccc2[C@@H]1C(C)C")
"true (1)"
>>> classification("CN1CCN(C2Cc3ccccc3Sc3ccc(Cl)cc32)CC1 (centres undefined)")
"true (1)"
